# ASSAY_PROCEDURE: pKa
# Assay type: physicochemical

# STRUCTURE_SMILES_STRING, pKa
measured = [
    ("CCCc1nc2ccc(C)cc2c(=O)n1Cc1ccc(-c2ccccc2-c2nn[nH]n2)cc1", 4.7),
]
